Examples of molecules with documented Therapeutical index follow.
Tested on: carrageenin oedema of the hind paw
methodNotes: antiphlogistic (oedema-inhibiting) effect, carrageenin paw oedema
Assay type: in vivo, rats
protocolConditions: carrageenin oedema, rats
Structures can show the parent of a compound that is named as a salt.
Give only the figure.

Known Therapeutical index results, listed for orientation:
- molecule: "CCC(=O)N1NC(c2ccc(OC)cc2)=Nc2cccnc21 [Example 5, hydrochloride]"
  Therapeutical index: 10
- molecule: "CCCCCCC1=Nc2cccnc2N(C(=O)c2ccccc2)N1.Cl"
  Therapeutical index: 5.4
- molecule: "CCC(=O)N1NC(c2cc(OC)c(OC)c(OC)c2)=Nc2cccnc21.Cl"
  Therapeutical index: 12.9

Determine reported Therapeutical index for `CCCCCCC1=Nc2cccnc2N(C(=O)CC)N1.Cl` ; test system: carrageenin oedema of the hind paw.
7.5
